# assay_notes: protein stability index of a GFP-peptide fusion (GPS, HEK-293T) (PSI 1-6); higher = more stable;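 also: 24-mer peptide tiles fused after GFP, lentivirally expressed, FACS-sorted into six equal bins by GFP/DsRed ratio, decoded by Illumina sequencing, PSI is the read-weighted mean bin number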
# experimental_conditions: treatment: DMSO; c terminus: a fixed tail appended
Here the recorded protein stability index is given for each entry.
Answer using only a numeral; do not append any unit.

Below are worked cases with known answers.
> print(dat)
                    sequence.content  readout.number
1  WTAPLVMRTTNLDNRCKLFDSPSL [CDC25A]             2.4
2  DFSSGGAAAAAAPAPPPPAGGATA [SNAP91]            5.39
3   SRRVIAANNRILAERIAKEIQVIP [IMPA1]            2.46
4  WKITIYDQENFQGKRMEFTSSCPN [CRYBA1]            2.26
5    RPYMCKECGKAFSQNSSLVQHERI [ZNF8]            2.82

Exam item: Write down protein stability index measured for item TKLHDIDGVPHLILIASRDIAAGE [KMT5A]
Marked response: 2.36

Exam item: Report measured protein stability index; entry is PESQFPEFSTSLFSGSLEPVACGS [SRPK2]
Marked response: 4.21

Exam item: State its protein stability index: NGGMATTSAEIELPDVEPAAFLAL [BTBD1]
Marked response: 3.86
